Recorded IC50 values for a group of molecules are listed next.
# System: Influenza A virus
# protocol: Antiviral activity against influenza A virus B/Sichuan/531/2018 (Victoria) infected in MDCK cells assessed as inhibition of viral growth
# Format: functional, organism-based

1. O=C1c2c(O)c(=O)ccn2N([C@@H]2c3ccccc3SCc3c2ccc(F)c3F)[C@@H]2COCCN12 [BALOXAVIR] :: 70 nM

Attention now turns to another entry.
Incoming: Give its IC50 value. Item: CCOC(=O)C1=C[C@@H](OC(CC)CC)[C@H](NC(C)=O)[C@@H](N)C1.O=P(O)(O)O [OSELTAMIVIR PHOSPHATE]
Outgoing: > 100000 nM

---

# System: Influenza A virus
# protocol: Antiviral activity against influenza A virus A/WSN/33(H1N1) infected in MDCK cells assessed as inhibition of viral-induced cytopathic effect incubated for 48 hrs by microscopic analysis
# Format: functional, organism-based
reported-metric: pIC50
Scale for pIC50: -log10 of concentration given in mol/L; no unit attached.

Incoming: Give its pIC50 value. Item: O=C1c2c(O)c(=O)ccn2N([C@@H]2c3ccccc3SCc3c2ccc(F)c3F)[C@@H]2COCCN12 [BALOXAVIR]
Outgoing: 8.05

---

# protocol: Cytotoxicity against dog MDCK cells assessed as cell viability at 30 uM incubated for 48 hrs by celltiter-glo assay
# Assay type: toxicity, cell-based, Canis lupus familiaris
# recorded-conditions: read-out: Activity
reported-metric: viability at 48 h, 30 µM (%)
A number alone suffices; assume %.

1. CC1(C)CC[C@]2(C(=O)O)CC[C@]3(C)C(=CC[C@@H]4[C@@]5(C)CC[C@H](O)C(C)(C)[C@@H]5CC[C@]43C)[C@@H]2C1 [OLEANOLIC_ACID] :: 99

Incoming: Give its viability at 48 h, 30 µM value. Item: CCOC(=O)C1=C[C@@H](OC(CC)CC)[C@H](NC(C)=O)[C@@H](N)C1.O=P(O)(O)O [OSELTAMIVIR PHOSPHATE]
Outgoing: 100
